Molecular target: Matrilysin (Homo sapiens, UniProt P09237)
Sequence (P09237 whole entry): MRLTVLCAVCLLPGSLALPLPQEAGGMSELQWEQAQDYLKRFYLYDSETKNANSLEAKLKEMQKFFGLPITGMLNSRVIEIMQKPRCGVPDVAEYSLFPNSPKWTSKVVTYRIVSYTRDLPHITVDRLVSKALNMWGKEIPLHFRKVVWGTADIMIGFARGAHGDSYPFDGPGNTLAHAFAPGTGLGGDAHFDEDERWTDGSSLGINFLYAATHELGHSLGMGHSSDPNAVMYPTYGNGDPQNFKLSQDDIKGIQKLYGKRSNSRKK
Observable: IC50 (µM)
Just the number in µM, nothing appended.

Please supply the value of reported IC50 for the item CNC(=O)[C@@H](NC(=O)[C@H](CC(C)C)NC(=O)[C@@H](S)CCN1C(=O)N(C)C(C)(C)C1=O)C(C)(C)C
0.023

These measurements were taken from ChEMBL document CHEMBL5230143.
